Where these numbers come from: PubChem BioAssay AID2060622

viability, T/C reference
- Tested on: 242566-281-R-J2-PDC complex spheroid viability
- ASSAY_NOTES: Anticancer human tumor 242566-281-R-J2-PDC patient-derived pancreatic carcinoma cell line growth inhibition [CLK]
- TEST_CONDITIONS: second compound 10 µM; first compound 0.003 µM; hits give low values
Express the result in % but write the number alone.

These recorded examples may help you get a feel for the data.
- MOLECULE: "C=CC(=O)Nc1cc(Nc2nccc(-c3cn(C)c4ccccc34)n2)c(OC)cc1N(C)CCN(C)C + CNC(=O)c1ccc(Nc2nc(OC3CCCC3)c3c(-c4ccc5nc(C)oc5c4)c[nH]c3n2)c(OC)c1"
  TARGET_DESC: "242566-281-R-J2-PDC complex spheroid viability"
  viability, T/C [%]: 51.2
- MOLECULE: "CC(C)CC(NC(=O)C(Cc1ccccc1)NC(=O)c1cnccn1)B(O)O (centres undefined) + CNC(=O)c1ccc(Nc2nc(OC3CCCC3)c3c(-c4ccc5nc(C)oc5c4)c[nH]c3n2)c(OC)c1"
  TARGET_DESC: "242566-281-R-J2-PDC complex spheroid viability"
  viability, T/C [%]: 3.83
- MOLECULE: "C=CC(=O)Nc1cc(Nc2nccc(-c3cn(C)c4ccccc34)n2)c(OC)cc1N(C)CCN(C)C + CN1CCN(c2cc(C(=O)Nc3cc4cc(-c5cnn(C)c5)ccc4cn3)ccn2)CC1"
  TARGET_DESC: "242566-281-R-J2-PDC complex spheroid viability"
  viability, T/C [%]: 1.98

In the following, a different molecule is considered.
Read off the recorded viability, T/C for CC(C)CC(NC(=O)C(Cc1ccccc1)NC(=O)c1cnccn1)B(O)O (centres undefined) + CN1CCN(c2cc(C(=O)Nc3cc4cc(-c5cnn(C)c5)ccc4cn3)ccn2)CC1 1.11

* * *

- Test system: 242566-281-R-J2-PDC complex spheroid viability
- ASSAY_NOTES: Anticancer human tumor 242566-281-R-J2-PDC cell line growth inhibition [CLK]; active = viability on the fitted dose curve at most 10% of control; inactive = the rest;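 further: spheroids exposed to compounds for 7 days before readout; 100% = DMSO vehicle control wells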
- TEST_CONDITIONS: second compound 1 µM; first compound 0.316 µM
Pick one: yes for active, no for inactive

Record excerpt, results attached:
- COMPOUND: "Nc1ccccc1NC(=O)c1ccc(CNC(=O)OCc2cccnc2)cc1 + CN1CCN(c2cc(C(=O)Nc3cc4cc(-c5cnn(C)c5)ccc4cn3)ccn2)CC1"
  CATEGORY_LABEL: "yes"
- COMPOUND: "CC(=O)O[C@H]1C(=O)[C@@]2(C)[C@H]([C@H](OC(=O)c3ccccc3)[C@]3(O)C[C@H](OC(=O)[C@H](O)[C@@H](NC(=O)c4ccccc4)c4ccccc4)C(C)=C1C3(C)C)[C@]1(OC(C)=O)CO[C@@H]1C[C@@H]2O + CN1CCN(c2cc(C(=O)Nc3cc4cc(-c5cnn(C)c5)ccc4cn3)ccn2)CC1"
  CATEGORY_LABEL: "yes"
- COMPOUND: "CCN1CCN(Cc2ccc(Nc3ncc(F)c(-c4cc(F)c5nc(C)n(C(C)C)c5c4)n3)nc2)CC1 + CN1CCN(c2cc(C(=O)Nc3cc4cc(-c5cnn(C)c5)ccc4cn3)ccn2)CC1"
  CATEGORY_LABEL: "yes"
- COMPOUND: "CC(Nc1ccc2c(c1)OCCn1cc(N3C(=O)OCC3C(F)F)nc1-2)C(N)=O (stereo not drawn) + CN1CCN(c2cc(C(=O)Nc3cc4cc(-c5cnn(C)c5)ccc4cn3)ccn2)CC1"
  CATEGORY_LABEL: "yes"
- COMPOUND: "CC1(C)CCC(CN2CCN(c3ccc(C(=O)NS(=O)(=O)c4ccc(NCC5CCOCC5)c([N+](=O)[O-])c4)c(Oc4cnc5[nH]ccc5c4)c3)CC2)=C(c2ccc(Cl)cc2)C1 + CNC(=O)c1ccc(Nc2nc(OC3CCCC3)c3c(-c4ccc5nc(C)oc5c4)c[nH]c3n2)c(OC)c1"
  CATEGORY_LABEL: "no"

Please indicate how the test categorized COc1c(OCCCN2CCOCC2)ccc2c3n(c(=NC(=O)c4cnc(N)nc4)nc12)CCN3 + CNC(=O)c1ccc(Nc2nc(OC3CCCC3)c3c(-c4ccc5nc(C)oc5c4)c[nH]c3n2)c(OC)c1 . no

Please indicate how the test categorized C=CC(=O)N1CCN(c2nc(=O)n(-c3c(C)ccnc3C(C)C)c3nc(-c4c(O)cccc4F)c(F)cc23)C(C)C1 (stereo not drawn) + CN1CCN(c2cc(C(=O)Nc3cc4cc(-c5cnn(C)c5)ccc4cn3)ccn2)CC1 . yes

Please indicate how the test categorized COC1C=CCC(C)C(C)S(=O)(=O)NC(=O)c2ccc3c(c2)N(CC2CCC21)CC1(CCCc2cc(Cl)ccc21)CO3 (stereo not drawn) + CN1CCN(c2cc(C(=O)Nc3cc4cc(-c5cnn(C)c5)ccc4cn3)ccn2)CC1 . yes

* * *

viability, T/C reference
- Test system: 242566-281-R-J2-PDC complex spheroid viability
- ASSAY_NOTES: Anticancer human tumor 242566-281-R-J2-PDC cell line growth inhibition [CLK];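 further: spheroids exposed to compounds for 7 days before readout; 100% = DMSO vehicle control wells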
- TEST_CONDITIONS: second compound 0.1 µM; first compound 3.16 µM; hits give low values
Express the result in % but write the number alone.

Please report the measured viability, T/C for COC1C=CCC(C)C(C)S(=O)(=O)NC(=O)c2ccc3c(c2)N(CC2CCC21)CC1(CCCc2cc(Cl)ccc21)CO3 (configuration not stated) + CNC(=O)c1ccc(Nc2nc(OC3CCCC3)c3c(-c4ccc5nc(C)oc5c4)c[nH]c3n2)c(OC)c1 tested on 242566-281-R-J2-PDC complex spheroid viability. 91.4

Please report the measured viability, T/C for CCCS(=O)(=O)Nc1ccc(F)c(C(=O)c2c[nH]c3ncc(-c4ccc(Cl)cc4)cc23)c1F + CNC(=O)c1ccc(Nc2nc(OC3CCCC3)c3c(-c4ccc5nc(C)oc5c4)c[nH]c3n2)c(OC)c1 tested on 242566-281-R-J2-PDC complex spheroid viability. 87.9

Please report the measured viability, T/C for CC(CO)NC(=O)c1cc(-c2ccc(Cl)cc2)nn(-c2cnn(C)c2)c1=O (configuration not stated) + CNC(=O)c1ccc(Nc2nc(OC3CCCC3)c3c(-c4ccc5nc(C)oc5c4)c[nH]c3n2)c(OC)c1 tested on 242566-281-R-J2-PDC complex spheroid viability. 103

Please report the measured viability, T/C for CC(=O)O[C@H]1C(=O)[C@@]2(C)[C@H]([C@H](OC(=O)c3ccccc3)[C@]3(O)C[C@H](OC(=O)[C@H](O)[C@@H](NC(=O)c4ccccc4)c4ccccc4)C(C)=C1C3(C)C)[C@]1(OC(C)=O)CO[C@@H]1C[C@@H]2O + CNC(=O)c1ccc(Nc2nc(OC3CCCC3)c3c(-c4ccc5nc(C)oc5c4)c[nH]c3n2)c(OC)c1 tested on 242566-281-R-J2-PDC complex spheroid viability. 70.7

Please report the measured viability, T/C for COc1cccc2c1C(=O)c1c(O)c3c(c(O)c1C2=O)CC(O)(C(=O)CO)CC3OC1CC(N)C(O)C(C)O1 (configuration not stated) + CNC(=O)c1ccc(Nc2nc(OC3CCCC3)c3c(-c4ccc5nc(C)oc5c4)c[nH]c3n2)c(OC)c1 tested on 242566-281-R-J2-PDC complex spheroid viability. 6.66

Please report the measured viability, T/C for COc1cccc2c1C(=O)c1c(O)c3c(c(O)c1C2=O)CC(O)(C(=O)CO)CC3OC1CC(N)C(O)C(C)O1 (configuration not stated) + CN1CCN(c2cc(C(=O)Nc3cc4cc(-c5cnn(C)c5)ccc4cn3)ccn2)CC1 tested on 242566-281-R-J2-PDC complex spheroid viability. 1.22

Please report the measured viability, T/C for Nc1ccn(C2OC(CO)C(O)C2(F)F)c(=O)n1 (configuration not stated) + CN1CCN(c2cc(C(=O)Nc3cc4cc(-c5cnn(C)c5)ccc4cn3)ccn2)CC1 tested on 242566-281-R-J2-PDC complex spheroid viability. 6.64

* * *

- System: 242566-281-R-J2-PDC complex spheroid viability
- ASSAY_NOTES: Anticancer human tumor 242566-281-R-J2-PDC cell line growth inhibition [CLK]; active = viability on the fitted dose curve at most 10% of control; inactive = the rest;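 further: spheroids exposed to compounds for 7 days before readout; 100% = DMSO vehicle control wells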
- TEST_CONDITIONS: second compound 1 µM; first compound 0.316 µM
Pick one: t (active), f (inactive)

Please indicate how the test categorized Nc1ccccc1NC(=O)c1ccc(CNC(=O)OCc2cccnc2)cc1 + CNC(=O)c1ccc(Nc2nc(OC3CCCC3)c3c(-c4ccc5nc(C)oc5c4)c[nH]c3n2)c(OC)c1 . f

Please indicate how the test categorized C#Cc1c(F)ccc2cc(O)cc(-c3ncc4c(N5CC6CCC(C5)N6)nc(OCC56CCCN5CC(F)C6)nc4c3F)c12 (stereo not given) + CN1CCN(c2cc(C(=O)Nc3cc4cc(-c5cnn(C)c5)ccc4cn3)ccn2)CC1 . t

Please indicate how the test categorized C=C(F)C(=O)N1CCN(c2nc(OCC3CCCN3C)nc3c2CCN(c2cccc4cccc(Cl)c24)C3)CC1CC#N (stereo not given) + CN1CCN(c2cc(C(=O)Nc3cc4cc(-c5cnn(C)c5)ccc4cn3)ccn2)CC1 . t

Please indicate how the test categorized COc1cccc2c1C(=O)c1c(O)c3c(c(O)c1C2=O)CC(O)(C(=O)CO)CC3OC1CC(N)C(O)C(C)O1 (stereo not given) + CNC(=O)c1ccc(Nc2nc(OC3CCCC3)c3c(-c4ccc5nc(C)oc5c4)c[nH]c3n2)c(OC)c1 . t

Please indicate how the test categorized CC1(C)CCC(CN2CCN(c3ccc(C(=O)NS(=O)(=O)c4ccc(NCC5CCOCC5)c([N+](=O)[O-])c4)c(Oc4cnc5[nH]ccc5c4)c3)CC2)=C(c2ccc(Cl)cc2)C1 + CN1CCN(c2cc(C(=O)Nc3cc4cc(-c5cnn(C)c5)ccc4cn3)ccn2)CC1 . t
